Data credit: PubChem BioAssay AID504926

- Test system: S. cerevisiae growth, flow cytometry event count, 7 d
- measurement.description: yeast growth inhibition by event count, dose response, cytotoxicity control for yeast caloric restriction mimetic project, powder samples (AID 504926)
- experimental.setup: at 100 µM
Calls of active or inactive are those of the source.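 Rule for the calls: active = compounds cutting yeast counts by over 60% at top dose, with positive span-based score; inactive = the rest.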
Respond only with the outcome that fits, drawn from active, inactive

stdin: Lab log entry: CCn1c2ccccc2c2n[nH]c(=S)nc21 — outcome as called in the assay?
stdout: inactive

stdin: Lab log entry: O=C(/C=C/c1cccs1)NC(=S)NNC(=O)Cc1cccs1 — outcome as called in the assay?
stdout: active

stdin: Lab log entry: CC(=O)Nc1ccc2nc3ccccc3nc2c1 — outcome as called in the assay?
stdout: inactive

stdin: Lab log entry: O=C(c1ccc2nccnc2c1)N1CCN(c2ccccc2)CC1 — outcome as called in the assay?
stdout: inactive

stdin: Lab log entry: O=C(c1cccc2nccnc12)N1CCOc2ccccc21 — outcome as called in the assay?
stdout: inactive

stdin: Lab log entry: O=C(Nc1ccc2nc3ccccc3nc2c1)c1ccc(Br)cc1 — outcome as called in the assay?
stdout: inactive

stdin: Lab log entry: C[C@@]12C(=O)OC(=O)[C@]1(C)C1CCC2O1 — outcome as called in the assay?
stdout: active

stdin: Lab log entry: CN(C)CCNc1ncnc2c1cnn2-c1ccc(Cl)cc1 — outcome as called in the assay?
stdout: inactive

stdin: Lab log entry: CC(C)(C)Nc1ncnc2c1cnn2-c1ccccc1 — outcome as called in the assay?
stdout: inactive

stdin: Lab log entry: O=C(Nc1ccc2nccnc2c1)NC1CCCCC1 — outcome as called in the assay?
stdout: inactive

stdin: Lab log entry: CCCCCNC(=O)C(=O)C1C(=O)Nc2ccccc21 (stereo unspecified) — outcome as called in the assay?
stdout: active

stdin: Lab log entry: Cc1ccccc1NC(=O)c1cccc2nc3ccccc3nc12 — outcome as called in the assay?
stdout: inactive

stdin: Lab log entry: CNc1ccc2nc3ccccc3[n+](C)c2c1 — outcome as called in the assay?
stdout: inactive

stdin: Lab log entry: CCc1nc(NC(C)(C)C)c2cnn(-c3ccccc3)c2n1 — outcome as called in the assay?
stdout: inactive

stdin: Lab log entry: N#CC(c1nc2ccccc2nc1N1CCCC1)S(=O)(=O)c1ccccc1 (stereo unspecified) — outcome as called in the assay?
stdout: inactive

stdin: Lab log entry: COc1ccc2nc3ccccc3nc2c1N — outcome as called in the assay?
stdout: inactive

stdin: Lab log entry: O=C(c1ccc2nccnc2c1)N1CCCCC1 — outcome as called in the assay?
stdout: inactive

stdin: Lab log entry: [O-][n+]1c2ccccc2[n+]([O-])c2cc(O)ccc21 — outcome as called in the assay?
stdout: inactive

stdin: Lab log entry: Nc1cc2nc3ccccc3nc2cc1N — outcome as called in the assay?
stdout: inactive

stdin: Lab log entry: O=c1[nH]c(O)c(C=Nc2ccc(F)c(Cl)c2)c(=O)[nH]1 — outcome as called in the assay?
stdout: inactive

stdin: Lab log entry: O=C(/C=C/c1ccccc1)NC(=S)NNC(=O)Cc1cccs1 — outcome as called in the assay?
stdout: inactive

stdin: Lab log entry: CN1CCN(C(=O)c2ccc3nccnc3c2)CC1 — outcome as called in the assay?
stdout: inactive

stdin: Lab log entry: CC(C)OC(=O)c1ccc2nc3ccccc3nc2c1 — outcome as called in the assay?
stdout: inactive

stdin: Lab log entry: CC(C)(C)n1nc(-c2ccc(Cl)cc2)c2c(N)ncnc21 — outcome as called in the assay?
stdout: inactive

stdin: Lab log entry: CN(C)C(=O)c1ccc2nccnc2c1 — outcome as called in the assay?
stdout: inactive

stdin: Lab log entry: CCN(CC)c1ccc2nc3ccc(N)cc3[n+](-c3ccccc3)c2c1 — outcome as called in the assay?
stdout: inactive
